Assay: A CellTox Green Cytotoxicity Assay to monitor cytotoxicity in HepG2 cells - 24 hour (AID 1224878); further: on the % scale 0 is the no-effect control and ±100 the full control effect; nearly all actives have a fitted effect of over 45% in size
Settings: CellTox Green fluorescence; series mostly up to 76.8 µM
Inconclusive results are not listed. Active and inactive are the calls of the source. The call rests on the fitted dose curve; in most records, active means well fitted activation curve with a large enough effect in the repeat runs; inconclusive means weak or mixed curves; inactive means flat fitted curve, though single readings scatter.
quantity measured: cytotoxicity

molecule	readout value
CC(C)c1cc(C(C)C)cc(C(C)C)c1	inactive
CC(C)OC(=O)C(C(=O)OC(C)C)=C1SC=CS1	inactive
O=CN1CCCCC1	inactive
C=CCn1cc[n+](C)c1	inactive
O=S(=O)(O)CC(O)CCl (stereo not drawn)	inactive
CC1=C(O)C(=O)CO1	inactive
CCCC(=O)OC	inactive
CNC(=O)c1c(I)c(NC(C)=O)c(I)c(C(=O)O)c1I	inactive
C[C@]12C=CC(=O)C=C1[C@@H](F)C[C@@H]1[C@@H]2[C@@H](O)C[C@@]2(C)[C@H]1CC[C@]2(O)C(=O)CO	inactive
CCCCN(CCCC)CCCCCCN(CCCC)CCCC	inactive
Cc1cc(=O)oc2cc(O[C@@H]3SC[C@@H](O)[C@H](O)[C@H]3O)ccc12	inactive
Cc1ccc(S(=O)(=O)NC(=O)NN2CC3CCCC3C2)cc1 (stereo not drawn)	inactive
CC(=O)SCC(CC(=O)c1ccc(C)cc1)C(=O)O (stereo not drawn)	inactive
C=C(C)C(=O)OCCOC1CC2CC1C1C=CCC21 (stereo not drawn)	inactive
CC(=O)OC/C=C(/C)CCC=C(C)C	inactive
CCCC[O][Al]([O]CCCC)[O]CCCC	inactive
C/C=C(\C)C(=O)OC/C=C(\C)CCC=C(C)C	inactive
CC(=O)c1ccc2ccc3ccccc3c2c1	inactive
CCCCC(CC)CCC(CC(C)C)OS(=O)(=O)O (stereo not drawn)	inactive
C=CC(=O)OCCOCCOCC	inactive
CC12CCCC=C1C(=O)OC2=O (stereo not drawn)	inactive
N#Cc1ccccc1C#N	inactive
O=C(c1ccccc1)c1cccc(O)c1	inactive
COC(=O)c1ccc(C(=O)O)cc1	inactive
CCc1ccc(CC)cc1	inactive
COc1cnc(NS(=O)(=O)c2ccc(N)cc2)nc1	inactive
CC(C)(Sc1cc(C(C)(C)C)c(O)c(C(C)(C)C)c1)Sc1cc(C(C)(C)C)c(O)c(C(C)(C)C)c1	inactive
O=c1[nH]c(=O)c2cn[nH]c2[nH]1	inactive

* * *

Assay: A CellTox Green Cytotoxicity Assay to monitor cytotoxicity in HepG2 cells - 16 hour (AID 1224876); further: on the % scale 0 is the no-effect control and ±100 the full control effect; nearly all actives have a fitted effect of over 45% in size
Settings: CellTox Green fluorescence; series mostly up to 76.8 µM
Source text: National Center for Advancing Translational Sciences [NCATS] NIH Chemical Genomics Center [NCGC] U.S. Environmental Protection Agency [EPA] National Institutes of Environmental Health Sciences [NIEHS] National Toxicology Program [NTP] Cell-based models are critical for drug discovery. […] Viable cells produce no appreciable increases in fluorescence. Therefore, the fluorescence signal produced by the binding interaction with dead cell DNA is proportional to cytotoxicity. […]
Results filed as inconclusive are left out. Active and inactive are the calls of the source. Calls follow the shape of the dose curve; as a rule, active = well fitted activation curve with a large enough effect in the repeat runs; inconclusive = weak or mixed curves; inactive = flat fitted curve, though single readings scatter.

compound	cytotoxicity increase
CCCCC(CC)CCC(CC(C)C)OS(=O)(=O)O (stereo unspecified)	inactive
NNC(=O)CCCCC(=O)NN	inactive
O=c1c(O)c(O)c1=O	inactive
CSC(=O)c1cccc2nnsc12	inactive
O=S(=O)(O)c1cc(I)c(O)c2ncccc12	inactive
O=C1CC2(CCCC2)CC(=O)N1CCNCC1COc2ccccc2O1 (stereo unspecified)	inactive
CC(C)=CCC/C(C)=C\C#N	inactive
O=C(OOC(=O)c1ccccc1)c1ccccc1	inactive
C/C=C(\C)C=O	inactive
O=CN1CCCCC1	inactive
N=C(N)S(=O)O	inactive
COC(=O)c1ccc(C(=O)O)cc1	inactive
CC(=O)Oc1ccc(C(C)=O)cc1	inactive
Cc1ccc(OC(=O)CC(C)C)cc1	inactive
CCC(C)(C)C	inactive
CCNC(=O)C(C)OC(=O)Nc1ccccc1 (stereo unspecified)	inactive

* * *

Molecular target: Nuclear receptor subfamily 1 group I member 3 (Homo sapiens) (UniProt Q14994)
Sequence (Q14994 whole entry, looked up): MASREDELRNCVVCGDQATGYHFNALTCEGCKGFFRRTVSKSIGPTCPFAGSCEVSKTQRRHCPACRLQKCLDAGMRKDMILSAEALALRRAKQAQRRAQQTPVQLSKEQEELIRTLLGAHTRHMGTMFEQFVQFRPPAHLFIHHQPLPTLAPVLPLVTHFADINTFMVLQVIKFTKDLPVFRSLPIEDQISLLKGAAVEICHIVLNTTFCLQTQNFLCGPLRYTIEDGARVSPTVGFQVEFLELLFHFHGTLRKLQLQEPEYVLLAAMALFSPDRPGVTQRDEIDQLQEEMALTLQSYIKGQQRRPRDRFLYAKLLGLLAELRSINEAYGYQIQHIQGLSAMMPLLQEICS
Test: qHTS assay to identify small molecule agonists of the constitutive androstane receptor (CAR) signaling pathway (AID 1224839);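 further: HepG2 cells stably carrying human CAR and a CYP2B6 luciferase reporter; on the % scale 0 is the no-effect control and ±100 the full control effect; nearly all actives have a fitted effect of over 15% in size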
Details: HepG2 hCAR CYP2B6-luciferase, agonist mode, 24 h; series mostly up to 92.4 µM
Inconclusive results are not listed. Calls of active or inactive are those of the source. Calls come from the whole dose curve; as a rule, active = well fitted activation curve with a large enough effect in the repeat runs; inconclusive = weak or mixed curves; inactive = no such curve, though single readings can be large or run the other way. Non-standard residues stand in square brackets, D forms with d. Residues, ends and D or L forms follow the SMILES beside them. *: point of attachment. Sta = CC(C)C[C@H](N)[C@@H](O)CC(=O)O; Isovaleryl = CC(C)CC(=O)*

compound	activation
O=C(O)P(=O)(O)O	inactive
CO/N=C(\C(=O)O)c1csc(NC(=O)CCl)n1	inactive
CCN(CC)CC	inactive
Cc1ccc(NC(N)=O)cc1	inactive
COC(=O)c1ccccc1Cl	inactive
CCCCCCCCC1CO1 (stereo not drawn)	inactive
O=CN1CCCCC1	inactive
CCOc1ccccc1OCCN[C@H](C)Cc1ccc(OC)c(S(N)(=O)=O)c1	inactive
CCCCCCCCCCCCCCCC(=O)OC	-1.6% [at 19 µM] (inactive)
CCCCCC(=O)CC	inactive
O=C(O)COc1ccc2ccccc2c1	inactive
c1cc2ccc3ccc4ccc5cccc6c(c1)c2c3c4c56	5.04% [at 3.27 µM] (inactive)
CCCCCCCCS(=O)(=O)O	inactive
Cc1cc2c(cc1CC(=O)c1sccc1S(=O)(=O)Nc1onc(C)c1Cl)OCO2	inactive
COc1cc2nc(N3CCN(C(=O)C4CCCO4)CC3)nc(N)c2cc1OC (stereo not drawn)	inactive
CCOCCOCCOC(C)=O	inactive
CC(=O)OC/C=C(/C)CCC=C(C)C	inactive
CN1C(CCl)Nc2cc(Cl)c(S(N)(=O)=O)cc2S1(=O)=O (stereo not drawn)	inactive
C=CCCCCCCCCCCCCCC	-0.195% [at 19 µM] (inactive)
CC1=C(O)C(=O)CO1	inactive
CN(C)CCc1c[nH]c2ccc(CS(=O)(=O)N3CCCC3)cc12	inactive
CN(C)CCC[C@@]1(c2ccc(F)cc2)OCc2cc(C#N)ccc21	inactive
CC(CN1CC(=O)NC(=O)C1)N1CC(=O)NC(=O)C1 (stereo not drawn)	inactive
CC(=O)Nc1ccc(OCCOCCOc2ccc(NC(C)=O)cc2)cc1	inactive
CC(C)=CCC/C(C)=C\C#N	inactive
CCCC(=O)CC	inactive
Cc1cc(C)c(C)c(C)c1	inactive
O=P(O)(O)C(O)(Cc1cccnc1)P(=O)(O)O	inactive
C=CCN1CCc2nc(N)sc2CC1	inactive
CC(C)CC(=O)N[C@H](C(=O)N[C@H](C(=O)N[C@@H](CC(C)C)[C@@H](O)CC(=O)N[C@@H](C)C(=O)N[C@@H](CC(C)C)[C@@H](O)CC(=O)O)C(C)C)C(C)C (Isovaleryl-VV[Sta]A[Sta]-OH)	inactive
CCCCS	inactive
C=CCON/C(CCC)=C1\C(=O)CC(C)(C)C(C(=O)OC)=C1O	inactive
CC(C)CC(O)Cc1ccccc1 (stereo not drawn)	inactive
O=Cc1ccc(C(=O)O)cc1	inactive
CCC(C)c1nccnc1OC (stereo not drawn)	inactive
CNC(C)=O	inactive
CC/C=C\CCOC(=O)c1ccccc1	inactive
CCCOc1ccc(C(=O)OCCN(CC)CC)cc1N	inactive
COC(=O)c1ccc(NC(C)=O)cc1OC	inactive
OCCC(F)(F)C(F)(F)C(F)(F)C(F)(F)C(F)(F)C(F)(F)F	inactive
Cc1ccc2ccccc2n1	inactive
O=S(=O)(O)c1ccc(Cl)cc1	inactive
Cc1ccccc1C#N	inactive
CC(C)(C)C(=O)CCc1ccc(Cl)cc1	inactive
N#CC1(N)CCCCC1	inactive
COc1cc(NS(=O)(=O)c2ccc(N)cc2)ncn1	inactive
O=C(O)/C=C(\CC(=O)O)C(=O)O	inactive
CC/C=C/CCCCCCCCCCOC(C)=O	inactive
CCCCN=C(N)N=C(N)N	inactive
CCCCN1C(=O)c2ccccc2C1=O	inactive
CCOC(=O)CC(C(C)=O)C(C)=O	inactive
CCOC(=O)CN1CCCC1=O	inactive
COC(=O)c1cc(Cl)c(NC(C)=O)cc1OC	inactive
CCCCC(O)/C=C(C)/C=C/C=C/C(=O)N1CCCC1=O (stereo not drawn)	inactive
CCCCCCC(O)CO (stereo not drawn)	inactive
O=C1c2ccccc2C(=O)N1CO	inactive
O=c1c(O)c(O)c1=O	inactive
CC(C)(C)OC(=O)c1ccccc1C(=O)O	inactive

* * *

Test: qHTS assay to identify small molecule agonists of the NFkB signaling pathway - cell viability counter screen (AID 1159515); further: on the % scale 0 is the no-effect control and ±100 the full control effect; nearly all actives have a fitted effect of over 55% in size
Conditions: NFkB-bla ME-180 viability, CellTiter-Glo luminescence, 5 h; series mostly up to 61 µM
Results filed as inconclusive are left out. Activity calls are given as the source filed them. The call rests on the fitted dose curve.

structure smiles	activity, negative = cytotoxic
COC(=O)c1ccc(C(=O)O)cc1	inactive
NC(=O)CC[C@@H](N)C(=O)O	inactive
Nc1nc(Cl)cc(Cl)n1	inactive
CC(=O)OCC(=O)[C@@]1(O)CC[C@H]2[C@@H]3CCC4=CC(=O)C=C[C@]4(C)[C@H]3[C@@H](O)C[C@@]21C	inactive
CC(C)(C)OC(=O)c1ccccc1C(=O)O	inactive
C[Si](C)(C)O[Si](O)(O)O	inactive
CCCC(=O)OC	inactive
